Hello, the source for this data is patent US7879846B2, in case you need it.

Target: Human sputum neutrophil elastase (Homo sapiens, UniProt P08246)
Sequence (P08246 30-247 limits assumed): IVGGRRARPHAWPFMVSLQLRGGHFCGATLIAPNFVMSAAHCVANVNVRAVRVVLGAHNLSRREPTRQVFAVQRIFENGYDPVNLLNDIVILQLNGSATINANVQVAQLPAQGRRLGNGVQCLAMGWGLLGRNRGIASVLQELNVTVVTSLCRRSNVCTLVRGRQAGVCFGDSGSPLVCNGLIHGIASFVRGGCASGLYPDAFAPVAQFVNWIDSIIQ
Test: Inhibitor IC50 against human neutrophil elastase (fluorogenic MeOSuc-AAPV-AMC substrate)
Details: 20 min preincubation, read-out: HNE IC50
Experimental: Determination of Inhibitor IC50 Values Against Human Neutrophil Elastase Human sputum neutrophil elastase (Elastin Products Co.) was diluted into Assay Buffer A (200 mM Tris pH 7.4, 1 mg/ml BSA) to a working concentration of 0.55 U/ml. […] DMSO alone was used as the negative control. […] Fluorescence intensity versus inhibitor concentration was plotted and fit to the Hill equation to quantify IC50 values.
pIC50: −log10 of the molar value.
The following compounds are listed with their measured pIC50 values.
valueType: pIC50

INSERT INTO assay_data (compound, studysystem, recordedresult) VALUES
  ('CCc1cc(OC)cc2nc(-c3cccnc3N3CC[C@H](N4CCOCC4)C3)oc(=O)c12', 'Human sputum neutrophil elastase (Homo sapiens, UniProt P08246)', '> 7.82'),
  ('CCSc1ncccc1-c1nc2cccc(C)c2c(=O)o1', 'Human sputum neutrophil elastase (Homo sapiens, UniProt P08246)', '< 6.82'),
  ('CCOCCN1CCN(c2ncccc2-c2nc3cc(OC)cc(CC)c3c(=O)o2)CC1', 'Human sputum neutrophil elastase (Homo sapiens, UniProt P08246)', '> 7.82'),
  ('CCOC(=O)CCN1CCN(c2ncccc2-c2nc3cc(OC)cc(CC)c3c(=O)o2)CC1', 'Human sputum neutrophil elastase (Homo sapiens, UniProt P08246)', '7.22 to 7.80'),
  ('CCCc1cc(OC)cc2nc(-c3cccnc3N3CCCN(C)CC3)oc(=O)c12', 'Human sputum neutrophil elastase (Homo sapiens, UniProt P08246)', '6.82 to 7.21'),
  ('CCc1cc(OC)cc2nc(-c3cccnc3N3C[C@H](CNC4CC4)[C@@H](C)C3)oc(=O)c12', 'Human sputum neutrophil elastase (Homo sapiens, UniProt P08246)', '7.22 to 7.80'),
  ('CCc1cc(OC)cc2nc(-c3cccc(N4CCN(C)CC4)n3)oc(=O)c12', 'Human sputum neutrophil elastase (Homo sapiens, UniProt P08246)', '7.22 to 7.80'),
  ('Cc1cccc2nc(-c3cccnc3OCCN(C)C)oc(=O)c12', 'Human sputum neutrophil elastase (Homo sapiens, UniProt P08246)', '< 6.82'),
  ('O=c1oc(-c2cccnc2Oc2ccc(Cl)cc2)nc2cccc(Cl)c12', 'Human sputum neutrophil elastase (Homo sapiens, UniProt P08246)', '7.22 to 7.80'),
  ('CCc1cc(OC)cc2nc(-c3cccnc3N3CCC(O)CC3)oc(=O)c12', 'Human sputum neutrophil elastase (Homo sapiens, UniProt P08246)', '> 7.82'),
  ('CCc1cc(OC)cc2nc(-c3cccnc3N3CC[C@@H](N4CCOCC4)C3)oc(=O)c12', 'Human sputum neutrophil elastase (Homo sapiens, UniProt P08246)', '> 7.82'),
  ('Cc1cccc2nc(-c3cccnc3N3CCS(=O)(=O)CC3)oc(=O)c12', 'Human sputum neutrophil elastase (Homo sapiens, UniProt P08246)', '< 6.82'),
  ('CCc1cc(OC)cc2nc(-c3ccnc(N4CCN(C)CC4)c3)oc(=O)c12', 'Human sputum neutrophil elastase (Homo sapiens, UniProt P08246)', '< 6.82'),
  ('O=c1oc(-c2ccccn2)nc2cc(Cl)cc(Cl)c12', 'Human sputum neutrophil elastase (Homo sapiens, UniProt P08246)', '< 6.82'),
  ('CCc1cc(OC)cc2nc(-c3cccnc3N3CC[C@@H](N4CCNC(=O)C4)C3)oc(=O)c12', 'Human sputum neutrophil elastase (Homo sapiens, UniProt P08246)', '> 7.82'),
  ('Cc1cccc2nc(-c3cccnc3-n3cc[n+](C)c3)oc(=O)c12', 'Human sputum neutrophil elastase (Homo sapiens, UniProt P08246)', '< 6.82'),
  ('CCc1cc(OC)cc2nc(-c3cccnc3N3CCC(N4CCCCC4)CC3)oc(=O)c12', 'Human sputum neutrophil elastase (Homo sapiens, UniProt P08246)', '> 7.82'),
  ('Cc1cccc2nc(-c3cnccn3)oc(=O)c12', 'Human sputum neutrophil elastase (Homo sapiens, UniProt P08246)', '6.82 to 7.21'),
  ('CCCc1cc(OC)cc2nc(-c3cccnc3N3CC[C@@H](N(C)C)C3)oc(=O)c12', 'Human sputum neutrophil elastase (Homo sapiens, UniProt P08246)', '6.82 to 7.21'),
  ('C#CCN1CCN(c2ncccc2-c2nc3cccc(C(F)(F)F)c3c(=O)o2)CC1', 'Human sputum neutrophil elastase (Homo sapiens, UniProt P08246)', '> 7.82'),
  ('COc1cccc2nc(-c3cccnc3N3CCC[C@H]3C(=O)OC(C)(C)C)oc(=O)c12', 'Human sputum neutrophil elastase (Homo sapiens, UniProt P08246)', '< 6.82'),
  ('Cc1cccc2nc(-c3ccncc3)oc(=O)c12', 'Human sputum neutrophil elastase (Homo sapiens, UniProt P08246)', '< 6.82'),
  ('CCc1cc(OC)cc2nc(-c3cccnc3N3CCC(N4CCCC4)CC3)oc(=O)c12', 'Human sputum neutrophil elastase (Homo sapiens, UniProt P08246)', '> 7.82'),
  ('CCCc1cc(OC)cc2nc(-c3cccnc3N3CCC(C(=O)C[S+](C)[O-])CC3)oc(=O)c12 (centres unmarked)', 'Human sputum neutrophil elastase (Homo sapiens, UniProt P08246)', '6.82 to 7.21'),
  ('CCc1cccc2nc(-c3cccnc3N3CCN(CCC#N)CC3)oc(=O)c12', 'Human sputum neutrophil elastase (Homo sapiens, UniProt P08246)', '> 7.82'),
  ('CCc1cc(OC)cc2nc(-c3cccnc3N3CCN(CC(=O)N4CCOCC4)CC3)oc(=O)c12', 'Human sputum neutrophil elastase (Homo sapiens, UniProt P08246)', '> 7.82'),
  ('Cc1cccc2nc(-c3cccnc3N3CCN(CCN(C)C)CC3)oc(=O)c12', 'Human sputum neutrophil elastase (Homo sapiens, UniProt P08246)', '7.22 to 7.80'),
  ('O=c1oc(-c2cccnc2-n2ccnc2)nc2cccc(Br)c12', 'Human sputum neutrophil elastase (Homo sapiens, UniProt P08246)', '6.82 to 7.21'),
  ('CCc1cc(OC)cc2nc(-c3cccnc3N3CCN(CC4CCCO4)CC3)oc(=O)c12 (centres unmarked)', 'Human sputum neutrophil elastase (Homo sapiens, UniProt P08246)', '> 7.82'),
  ('CCOC(=O)CN1CCN(c2ncccc2-c2nc3cc(OC)cc(CC)c3c(=O)o2)CC1', 'Human sputum neutrophil elastase (Homo sapiens, UniProt P08246)', '> 7.82'),
  ('O=c1oc(-c2cccs2)nc2ccccc12', 'Human sputum neutrophil elastase (Homo sapiens, UniProt P08246)', '< 6.82'),
  ('CCc1cccc2nc(-c3cccnc3N3CCN(CCOC)CC3)oc(=O)c12', 'Human sputum neutrophil elastase (Homo sapiens, UniProt P08246)', '> 7.82'),
  ('COc1cc(C(C)C)c2c(=O)oc(-c3cnn(C)c3N3CC[C@H](N(C)C)C3)nc2c1', 'Human sputum neutrophil elastase (Homo sapiens, UniProt P08246)', '< 6.82'),
  ('COCCN1CCN(c2ncccc2-c2nc3cccc(C)c3c(=O)o2)CC1', 'Human sputum neutrophil elastase (Homo sapiens, UniProt P08246)', '7.22 to 7.80'),
  ('CCc1cc(OC)cc2nc(-c3cccnc3N3CCCCC3)oc(=O)c12', 'Human sputum neutrophil elastase (Homo sapiens, UniProt P08246)', '7.22 to 7.80');

====

Target: Human sputum neutrophil elastase (Homo sapiens)
Sequence (P08246 30-247 limits assumed): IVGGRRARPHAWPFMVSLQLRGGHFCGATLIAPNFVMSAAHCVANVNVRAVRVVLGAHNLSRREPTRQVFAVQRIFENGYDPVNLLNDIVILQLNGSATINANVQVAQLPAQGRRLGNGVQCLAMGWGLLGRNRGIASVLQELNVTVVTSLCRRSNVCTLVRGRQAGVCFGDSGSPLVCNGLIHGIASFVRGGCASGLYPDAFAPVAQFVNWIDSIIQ
Assay: Inhibitor IC50 against human neutrophil elastase (fluorogenic MeOSuc-AAPV-AMC substrate)
Settings: 20 min preincubation, read-out: HNE IC50
Overview of recorded IC50 for various compounds
valueType: IC50

INSERT INTO results (compound, studysystem, recordedresult) VALUES
  ('CCCc1cc(OC)cc2nc(-c3cccnc3N3CCN(CCN4CCOCC4)CC3)oc(=O)c12 [Compound 147]', 'Human sputum neutrophil elastase (Homo sapiens)', '61 to 150 nM'),
  ('COc1cc(C2CCC2)c2c(=O)oc(-c3cccnc3N3CC[C@H](N(C)C)C3)nc2c1 [Compound 176]', 'Human sputum neutrophil elastase (Homo sapiens)', '61 to 150 nM'),
  ('CCc1cc(OC)cc2nc(-c3cccnc3N3CCN(C(C)C)CC3)oc(=O)c12 [Compound 201]', 'Human sputum neutrophil elastase (Homo sapiens)', '16 to 60 nM'),
  ('COc1cc(C2CCC2)c2c(=O)oc(-c3cccnc3N3CCN(CCN(C)C)CC3)nc2c1 [Compound 186]', 'Human sputum neutrophil elastase (Homo sapiens)', '61 to 150 nM');
